# System: K562
# assay_procedure: NCI tumour cell line growth inhibition, 48 h
Active and inactive are the calls of the source. Cut-off read from the data, not from the text of the source: active = GI50 up to about 1.1 µM and inactive = higher.
property_label: GI50

                                   compound               result
0  Cc1cccc(NC(=O)CC2C(=O)Nc3ccccc3S2(=O)=O)c1C (stereo not given)   9.18 µM (inactive)
1  CCOc1cc2c(cc1O)C(=O)C[C@@H]1[C@@H]2CC[C@]2(C)[C@@H](O)CC[C@@H]12   0.0362 µM (active)
2  COC(=O)c1ccccc1CC1Cc2c(C)ccc(C)c2C1=O (stereo not given)   33.5 µM (inactive)
3  CC[C@@]1(O)C[C@H](OC2CC(N(C)C)C(O)C(C)O2)c2c(cc3c(c2O)C(=O)c2c(O)ccc(O)c2C3=O)[C@H]1C(=O)OC (stereo not given in full)   0.0292 µM (active)
4  CCCCCC/C=C1\CCC(CN2CCCC2)C1=O (stereo not given)   3.87 µM (inactive)
5  COCCCNC(=O)C1C(=O)N(CCCOC)C(=O)/C1=N\N (stereo not given)  > 100 µM (inactive)
6  CCC(=O)C(CCN1CCC2(CCCc3ccccc32)CC1)(c1ccccc1)c1ccccc1    1.8 µM (inactive)
7           Nc1cc(N2CCCC2)nc(=O)n1Cc1ccccc1  > 100 µM (inactive)
8  CC(=O)OC(COc1ccc2c(c1)[n+]([O-])nc(N)[n+]2[O-])CN1CCCCC1 (stereo not given)   7.69 µM (inactive)
9        COC(=O)/C=C1/OC(c2ccccc2)=C(C)C1=O    3.2 µM (inactive)

====

# Test system: SNB-75
# assay_procedure: NCI tumour cell line growth inhibition, 48 h
Calls of active or inactive are those of the source. No stated cut-off is given here; in the data, active = GI50 up to about 1.1 µM and inactive = higher. *1 amine or outer side, *2 acyl side, *3 side chain or, on linkers, in order; H or OH if unused. Where a SMILES comes first, the peptide text is derived from it. Bridges are numbered along the chain shown (N, C = ends). [ ]: non-standard residue; d: D form. The star is where a group is joined. ξ: configuration not given here. ξOrn(4,5-diOH) = O=C(C(CC(O)C(O)N[*:3])N[*:1])[*:2]; ξhTyr(βξ-OH,γξ-OH) = NC(C(=O)O)C(O)C(O)c1ccc(O)cc1; ξPro(3ξ-OH,4ξ-Me) = CC1CNC(C(=O)O)C1O; X55 = CCCCC/C=C/C/C=C\CCCCCCCC(=O)*; Hyp = O=C(O)[CH]1C[CH](O)CN1
Labels: yes (active), no (inactive)

molecule	qualitative_label
O=C(CC1C=Cc2ccccc2N1C(=O)c1ccccc1)c1ccccc1 (configuration not stated)	no
CC(C)(C)c1ccccc1NS(=O)(=O)c1ccccc1	no
COc1cc(C2S/C(=C/c3ccccc3)C(=O)N2c2ccc([N+](=O)[O-])cc2)cc(OC)c1OC (configuration not stated)	no
c1ccc2c(c1)c1c3c(c4c(n32)=NCCN4)CCC1	no
CCCCC/C=C/C/C=C\CCCCCCCC(=O)NC1CC(O)C(O)NC(=O)C2C(O)C(C)CN2C(=O)C(C(C)O)NC(=O)C(C(O)C(O)c2ccc(O)cc2)NC(=O)C2CC(O)CN2C(=O)C(C(C)O)NC1=O (stereo not drawn) (X55-[ξOrn(4,5-diOH)]T[Hyp][ξhTyr(βξ-OH,γξ-OH)]T[ξPro(3ξ-OH,4ξ-Me)]; lactam 1-C; configuration not given here)	no
CC[C@@]1(O)C(=O)OCc2c1cc1n(c2=O)Cc2cc3c(N)cccc3nc2-1	yes
Cc1cccc(C(O)c2ccccn2)c1O (configuration not stated)	no
Cn1c(=O)c(/N=N/c2c(=O)n(C)c(=O)n3c2[nH]c2ccccc23)c2[nH]c3ccccc3n2c1=O	no
O=C1N(c2ccccc2)N=C2c3ccncc3C3=NN(c4ccccc4)C(=O)C123 (configuration not stated)	no
O=C(c1ccccc1)c1ccc2[nH]c(-c3c(Cl)c(Cl)c(Cl)c(Cl)c3C(=O)N/N=C/c3ccccc3)nc2c1	no
OCC(Cn1cncn1)(c1ccc(F)cc1F)n1cncn1 (configuration not stated)	no
O=C1c2c(c3c4ccccc4[nH]c3c3[nH]c4ccccc4c23)C(=O)N1Cc1ccccc1	no
COc1cc(C(C)O)c[n+](CCC2CNc3ccccc32)c1 (configuration not stated)	no
O=C(N/C(=C\c1ccc(/C=C(\NC(=O)c2ccccc2)c2nc3c(O)nc(S)nc3[nH]2)cc1)c1nc2c(O)nc(S)nc2[nH]1)c1ccccc1	no
O=Cc1c(Cn2ccnc2)c2cc([N+](=O)[O-])ccc2n1Cc1ccccc1	no
CC1=NN(c2ccccc2)C(=O)/C1=C1\SC(c2ccccc2)(c2ccccc2)c2ccccc21	no
FC(F)(F)c1n[nH]c(SCc2ccc(Cl)cc2)n1	no
O=C(Nc1ccc(Cl)cc1)C(=O)C(C(=O)c1ccccc1-c1ccccc1)C1OC(=O)c2ccccc21 (configuration not stated)	no
CC(=O)O/N=C/c1ncccc1CO	no
COc1ccc(NC2C(=O)C3(C)CCC2C3(C)C)cc1 (configuration not stated)	no
CCOc1cc2c(cc1O)C(=O)C[C@@H]1[C@@H]2CC[C@]2(C)[C@@H](O)CC[C@@H]12	yes
O=C(NC1=NC2C=CC([N+](=O)[O-])=CC2S1)C(=O)Nn1c(S)nc2ccccc2c1=O (configuration not stated)	no
CC(=O)OC1COC(n2c(-c3ccc(Cl)cc3)cc(-c3ccccc3)c(C#N)c2=S)C(OC(C)=O)C1OC(C)=O (configuration not stated)	no
COc1ccc(-n2sc3ncc([N+](=O)[O-])cc3c2=O)cc1	no
N/N=C1/C(=N/O)CCc2nonc21	no
O[C@@]1(C#Cc2ccc3c(c2)OCO3)CCC[C@H]1NCc1ccccc1	no
O=C1[C@H]2ON(c3ccccc3)C(c3ccccc3Cl)[C@H]2C(=O)N1c1ccc(Cc2ccc(N3C(=O)[C@@H]4ON(c5ccccc5)C(c5ccccc5Cl)[C@@H]4C3=O)cc2)cc1 (some centres not stated)	no

====

# Test system: OVCAR-5
# assay_procedure: NCI tumour cell line growth inhibition, 48 h
Activity calls are given as the source filed them. No stated cut-off is given here; in the data, active = GI50 up to about 1.1 µM and inactive = higher.
property_label: GI50

molecule	property_label	result
C=C1CC(O)C2C(=C)C(=O)OC2C2C(C)C(=O)CC12 (stereo not drawn)	GI50	16.1 µM (inactive)
O=C1[C@H]2ON(c3ccccc3)C(c3ccccc3Cl)[C@H]2C(=O)N1c1ccc(Cc2ccc(N3C(=O)[C@@H]4ON(c5ccccc5)C(c5ccccc5Cl)[C@@H]4C3=O)cc2)cc1 (stereo partly drawn)	GI50	> 100 µM (inactive)
c1ccc(-c2c[nH]c(SC(c3ccccc3)c3ccccc3)n2)cc1	GI50	55.7 µM (inactive)
CCOC(=N)/C(=C1\OC(=N)C(c2ccc(Cl)cc2)=C1O)c1ccc(Cl)cc1	GI50	19.4 µM (inactive)
OCCSCc1cc2c(O)c(c1)Cc1cc(CSCCO)cc(c1O)Cc1cc(CSCCO)cc(c1O)Cc1cc(CSCCO)cc(c1O)C2	GI50	5.6 µM (inactive)
O=C(c1ccccc1)C(C(=O)c1ccccc1)c1nc2ccccc2sc1=O	GI50	> 25 µM (inactive)
ClC(Cl)(Cl)C1CCOC1n1nc2ccccc2n1 (stereo not drawn)	GI50	> 100 µM (inactive)
CCC(CON(C)c1ccccc1)(SC)SC	GI50	> 100 µM (inactive)
COC(=O)c1ccccc1Nc1ccccc1C(=O)OC	GI50	> 100 µM (inactive)
COc1ccc(-n2sc3ncc([N+](=O)[O-])cc3c2=O)cc1	GI50	> 100 µM (inactive)
O=C1Nc2ccc(Br)cc2/C1=N/c1ccc2c(c1)OCO2	GI50	22.8 µM (inactive)
O[C@@]1(C#Cc2ccc3c(c2)OCO3)CCC[C@H]1NCc1ccccc1	GI50	34.8 µM (inactive)
CC(C)=CC1CC(=O)C1(C)Sc1ccccc1 (stereo not drawn)	GI50	> 100 µM (inactive)
CN(C)c1ccc(/C=C(\C#N)C(=O)c2ccccc2)cc1Br	GI50	> 100 µM (inactive)
CC(NC1CCCC[C@H]1O)c1ccccc1 (stereo partly drawn)	GI50	> 100 µM (inactive)
Cc1ccc(S(=O)(=O)N/N=C2/CCCOC2)cc1	GI50	> 100 µM (inactive)
CC(=O)OC[C@H]1[C@@H]2C(CC[C@]13CO3)OC(=O)CC(C)[C@]2(C)CCc1ccoc1 (stereo partly drawn)	GI50	> 100 µM (inactive)
OCC1CCCCCCCCCCC12SCCCS2 (stereo not drawn)	GI50	> 100 µM (inactive)
Nc1nc(-c2ccco2)cc(-c2ccco2)n1	GI50	> 100 µM (inactive)
C=C1C(=O)OC2CC(=C)C3CC=C(C)C3CC12 (stereo not drawn)	GI50	46.7 µM (inactive)
CN(C)c1nnnn1-c1c(N)n(C)c(=O)n(C)c1=O	GI50	> 100 µM (inactive)
O=c1cc(NNc2cccc(F)c2)[nH]c(=S)[nH]1	GI50	> 100 µM (inactive)
CCCCCCCCC(=O)N(C)C1C2CN3CCC(O2)C13 (stereo not drawn)	GI50	> 100 µM (inactive)
